TARGET_UNDER_TEST: T1, 4H3907-bN
T1 chain: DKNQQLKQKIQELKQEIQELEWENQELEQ
ASSAY: two-hybrid library CCNG1;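 also: natural log of median RNA to DNA barcode read ratio; higher means stronger binding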
binders and their reported interaction score
Give the figure only, with no unit attached.

In one line, give reported interaction score of the entry DENQQLEQKIQELKQKNQELKWKIQELKQ [4H1406-bN] .
0.347

Specify interaction score for DKNQQLKQKIQELKQEIQELEWENQELEQ [4H3907-bN] and stop.
-1.04

Look up and report measured interaction score for this entry: DEIQQLEQKIQELKQKIQELKWENQELEQ [4H363-bN]
0.321

Note interaction score for the binder shown: DKIQQLKQEIQELEQKNQELKWENQELEQ [4H2619-bN]
-0.483
